Molecular target: EGFRvIII expressed on cells (F98-npEGFRvIII, NCI-H522-EGFRvIII, U87-KO-EGFRvIII) (human)
Assay: flow cytometry, F98-EGFRvIII cells; 2nd Ab only 258
property: MFI
Answer as a number with no unit attached.

// 20B9 (antibody, V domains shown) VH: QVTLKESGPVLVKPTETLTLTCTVSGFSLSNARMGVSWIRQPPGKALEWLGHIFSTDEKSYSTSLRGRITISKDTSRGLVVLTLTNMDPVDTATYYCARDSSNYEGYFDFWGPGFLVTVSS VL: EIVMTQSPATLSVSPGERATLSCRVSQSIGANLAWYQQKFGQAPRLLIYGASTRATGIPVRFSGGGSGTEFTLTISSLQSEDFAIYSCQQYIYWPFTFGPGTTVDIK : MFI value = 3420

Note to self: MFI recorded for 46E10 (antibody, V domains shown) VH: QVTLKESGPVLVKPTETLTLTCTVSGFSLSNARMGVSWIRQPPGKALEWLAHIFSTDEKSIRRSLRSRLTLSKDTSKSQVVLIMTNMDPVDTATYYCARDSSNYEGYFDYWGQGTLVTVSS VL: EVVMTQSPPNLSVSPGERATLSCRASQSVTSNFAWYQQRPGQSPRLLLYGASTRATGVPGRFSGSGSGTENILTISSLQSEDFAVYFCQQYKDWPFTFGPGSKVDIK was 2990

// MFI value for 21E7 (antibody, V domains shown) VH: QVTLEESGPVLVKPTETLTLTCTVSGFSLSNARMGVSWIRQPPGKAPEWFAHIFSTDEKSLRLSLRSRLTLSKDTSKSQVVLTMTNMDPVDTATYYCARDSSNYEGYFDYWGQGTLVTVSS VL: DVVLTQSPATLSVSPGERATLSCRASQSVNSNLAWYQQNPGQAPRLLIFGSSTRATGIPASFSGSGSGTEFTLTINSLQSEHSAVYYCQQYNDWPFTFGPGTKVDIK : 3100
